Reference source for all entries: patent US20220289746A1

Below, each entry is listed alongside its reported EC50.
# test-target: human M4 receptor (Homo sapiens, UniProt P08173)
# Sequence (P08173 whole entry): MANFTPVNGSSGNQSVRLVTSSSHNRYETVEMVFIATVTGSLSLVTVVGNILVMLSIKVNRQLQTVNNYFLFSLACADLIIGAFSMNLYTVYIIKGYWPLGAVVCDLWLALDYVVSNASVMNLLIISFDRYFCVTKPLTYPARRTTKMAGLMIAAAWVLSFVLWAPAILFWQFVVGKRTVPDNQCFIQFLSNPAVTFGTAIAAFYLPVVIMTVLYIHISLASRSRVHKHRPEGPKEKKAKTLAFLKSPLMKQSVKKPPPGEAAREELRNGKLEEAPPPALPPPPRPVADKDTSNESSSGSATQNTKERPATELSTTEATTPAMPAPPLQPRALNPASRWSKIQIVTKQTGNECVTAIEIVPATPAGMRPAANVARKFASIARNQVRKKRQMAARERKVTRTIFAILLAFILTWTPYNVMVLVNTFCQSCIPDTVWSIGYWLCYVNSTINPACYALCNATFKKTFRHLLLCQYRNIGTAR
# assay-remarks: cAMP assay for M4 positive allosteric modulators (M4 PAM cAMP assay)
# Assay type: cell-based
# Parameters: expressed in transfected cells; host or cells: CHO-K1
# settings: Table 1; CHO-K1 cells expressing human M4; forskolin 7.5 μM + acetylcholine EC20 (0.2 nM)
Express it in nM; write the number only.

GET /values?readout=EC50&item= Cc1nc2c(c(C)c1Cl)CN(C(=O)[C@@H]1CCN(c3cncc(C4CC4)n3)C1)C2 [Example 43]
7290

GET /values?readout=EC50&item= Cc1nc2c(c(C)c1Cl)CN(C(=O)[C@@H]1CCN(c3ccncc3)C1)C2 [Example 3]
769

* * *

# test-target: human M4 receptor (Homo sapiens)
# assay-remarks: cAMP assay for M4 positive allosteric modulators (M4 PAM cAMP assay)
# Type: cell-based
# Parameters: expressed in transfected cells; host or cells: CHO-K1
# settings: Table 1; CHO-K1 cells expressing human M4; forskolin 7.5 μM + acetylcholine EC20 (0.2 nM)
pEC50: −log10 of the molar value.
Would you mind labelling by pEC50? At or over 6 is Y, under is N.

Please review the entries below; each comes with its answer.
Identify whether the reported pEC50 of the following molecule is 6 or greater: `Cc1ncncc1N1CC[C@@H](C(=O)N2Cc3nc(C)c(Cl)c(C)c3C2)C1`
Y

Identify whether the reported pEC50 of the following molecule is 6 or greater: `COc1ccnc(N2CC[C@@H](C(=O)N3Cc4nc(C)c(Cl)c(C)c4C3)C2)n1`
N

Identify whether the reported pEC50 of the following molecule is 6 or greater: `COc1nccc(N2CC[C@@H](C(=O)N3Cc4nc(C)c(Cl)c(C)c4C3)C2)n1`
N

Others:
Identify whether the reported pEC50 of the following molecule is 6 or greater: `Cc1nc2c(c(C)c1Cl)CN(C(=O)[C@@H]1CCN(c3ccnc(C#N)n3)C1)C2`
Y

Identify whether the reported pEC50 of the following molecule is 6 or greater: `Cc1nc2c(c(C)c1Cl)CN(C(=O)[C@@H]1CCN(c3cnc(C4COC4)nc3)C1)C2`
Y

Identify whether the reported pEC50 of the following molecule is 6 or greater: `Cc1nc2c(c(C)c1Cl)CN(C(=O)[C@@H]1CCN(c3cnc(C(F)(F)F)nc3)C1)C2`
N

* * *

# test-target: human M4 receptor (Homo sapiens)
# assay-remarks: Calcium flux assay using fluorescent imaging (M4 PAM FLIPR assay)
# Type: cell-based
# Set-up: expressed in transfected cells; host or cells: CHO (monoclonal line, clone 2)
# settings: Table 1; CHO cells expressing human M4+Gqi5; acetylcholine EC20
Below, each entry is listed alongside its reported pEC50.
Convention used: pEC50 is expressed as -log10 of the molar concentration.

GET /values?readout=pEC50&item= `Cc1nc2c(c(C)c1Cl)CN(C(=O)[C@@H]1CCN(c3ccnc(C4CC4)n3)C1)C2`
6.03

GET /values?readout=pEC50&item= `COCc1nc2c(c(C)c1Cl)CN(C(=O)[C@@H]1CCN(c3ccnc(C(F)F)c3)C1)C2`
7.00

Others:
GET /values?readout=pEC50&item= `CNc1ncc(N2CC[C@@H](C(=O)N3Cc4nc(C)c(Cl)c(C)c4C3)C2)cn1`
5.97

GET /values?readout=pEC50&item= `Cc1nc2c(c(C)c1Cl)CN(C(=O)[C@@H]1CCN(c3ncc(C(F)(F)F)cn3)C1)C2`
5.99
